- Tested on: HCV replicon cells
- Experiment description: Cell-based HCV replicon assay (replicon RNA level by real time PCR, Taqman)
- Condition summary: Hepatitis C virus, 72 h, HCV replicon cells, replicon RNA level by real time PCR, harvested day 3; read-out: EC90 (μM) range
Outcome measure: EC90

Noted for Cc1nc(C(N)=O)nc(N[C@@H]2C[C@H](CO)[C@H]3OC(C)(C)O[C@H]32)c1-c1nc2ccccc2s1 : its EC90 reads > 5 µM

Entry under test: Cc1nc(N[C@H](C)C(F)(F)F)nc(N[C@@H]2C[C@H](CO)[C@@H](O)[C@H]2O)c1-c1nc2ccccc2s1 . Its EC90 was 0.5 to 5 µM

EC90 reported for this molecule CCCc1nccc2sc(-c3c(C)nc(N[C@H](C)c4ccc(C)cc4)nc3N[C@@H]3C[C@H](CO)[C@@H](O)[C@H]3O)nc12 : < 0.5 µM

The measured EC90 associated with C=CCNc1nc(C)c(C2=NC3=C=CC=CC3S2)c(N[C@@H]2C[C@H](CO)[C@@H](O)[C@H]2O)n1 (stereo partly drawn) reads 0.5 to 5 µM

// field: EC90; key: Cc1nc(NCC(F)(F)F)nc(N[C@@H]2C[C@H](C(C)O)[C@@H](O)[C@H]2O)c1-c1nc2ccccc2s1 (single isomer, unassigned) [Example 1643] ; value = < 0.5 µM

For reference, reported EC90 for CCOc1cc2sc(-c3c(C)nc(N[C@H](C)c4ccc(C)cc4)nc3N[C@@H]3C[C@H](CO)[C@@H](O)[C@H]3O)nc2c(C)n1 stands at < 0.5 µM

Just so you know, measured EC90 for Cc1nc(NCC(F)(F)F)nc(N[C@@H]2C[C@H](CNS(=O)(=O)CC(F)(F)F)[C@@H](O)[C@H]2O)c1-c1nc2ccccc2s1 came out at 0.5 to 5 µM

Measured EC90, Cc1nc(NCC(F)(F)F)nc(N[C@@H]2C[C@H](CC#N)[C@@H](O)[C@H]2O)c1-c1nc2ccccc2s1 : < 0.5 µM

Recorded result, COc1ccc([C@H](Nc2nc(C)c(-c3nc4c(C)nccc4s3)c(N[C@@H]3C[C@H](CO)[C@@H](O)[C@H]3O)n2)C(F)(F)F)cc1 , EC90: < 0.5 µM

Kindly note the recorded EC90 for Cc1nc(N[C@H](C)c2ccc(OC(F)(F)F)cc2)nc(N[C@@H]2C[C@@H](C(C)O)[C@@H](O)[C@H]2O)c1-c1nc2cnccc2s1 (stereo partly drawn) , which is < 0.5 µM

Cc1nc(N[C@@H](c2ccsc2)C(F)(F)F)nc(N[C@@H]2C[C@H](CO)[C@@H](O)[C@H]2O)c1-c1nc2ccccc2s1 has a reported EC90 of 0.5 to 5 µM

Please fill in: EC90 reported for Cc1nc(N[C@@H](c2ccc(-n3cccn3)cc2)C(F)(F)F)nc(N[C@@H]2C[C@H](CO)[C@@H](O)[C@H]2O)c1-c1nc2c(C)nccc2s1 = < 0.5 µM

---

- Test system: HCV replicon cells
- Experiment description: Cell-based HCV replicon assay (replicon RNA level by real time PCR, Taqman)
- Condition summary: Hepatitis C virus, 72 h, HCV replicon cells, harvested on day 3, replicon RNA by real time PCR; calculated EC90 reported as range class; read-out: EC90 (μM) range
Assignment: determine reported EC90 for the given compounds.

Field EC90 (entry Cc1nc(NCc2ccccc2C(F)(F)F)nc(N[C@@H]2C[C@H](CO)[C@@H](O)[C@H]2O)c1-c1nc2ccccc2s1 [Example 239] ) reads 0.5 to 5 µM

Recorded result, Cc1nc(NCc2cccc(C(F)(F)F)c2)nc(N[C@@H]2C[C@H](CO)[C@@H](O)[C@H]2O)c1-c1nc2ccccc2s1 [Example 240] , EC90: < 0.5 µM

The compound listed as CCCCNc1nc(C)c(-c2nc3ccccc3s2)c(N[C@@H]2C[C@H](CO)[C@@H](O)[C@H]2O)n1 [Example 434] has a reported EC90 of < 0.5 µM

The measured EC90 associated with COc1ccc(CNc2nc(C)c(-c3nc4ccccc4s3)c(N[C@@H]3C[C@H](CO)[C@@H](O)[C@H]3O)n2)cc1OC [Example 709] reads < 0.5 µM

Recorded result, Cc1nc(NCc2cccs2)nc(N[C@@H]2C[C@H](C)[C@@H](O)[C@H]2O)c1-c1nc2ccccc2s1 [Example 337] , EC90: < 0.5 µM

# EC90 (compound: Cc1nc(NCc2ccccc2)nc(N[C@@H]2C[C@H](CO)[C@@H](O)[C@H]2O)c1-c1nc2ccccc2s1 [Example 431] ) is < 0.5 µM

Entry CCc1cc2cc(-c3c(C)nc(NCCC(F)(F)F)nc3N[C@@H]3C[C@H](CO)[C@@H](O)[C@H]3O)oc2cn1 [Example 521] , EC90 reported as < 0.5 µM

Notebook: Cc1cc2cc(-c3c(Cl)nc(N(C)C)nc3N[C@@H]3C[C@H](CO)[C@@H](O)[C@H]3O)oc2c(C)n1 [Example 420] , EC90 read as > 5 µM

Entry Cc1nc(NCc2cccc[n+]2[O-])nc(N[C@@H]2C[C@H](CO)[C@@H](O)[C@H]2O)c1-c1nc2ccccc2s1 [Example 482] ; EC90 = 0.5 to 5 µM

COC[C@H](C)Nc1nc(C)c(-c2nc3ccccc3s2)c(N[C@@H]2C[C@H](CO)[C@@H](O)[C@H]2O)n1 [Example 439] yielded EC90 of < 0.5 µM

Value of EC90 reported for the compound Cc1cc(C)cc(CNc2nc(C)c(-c3nc4ccccc4s3)c(N[C@@H]3C[C@H](CO)[C@@H](O)[C@H]3O)n2)c1 [Example 713] is < 0.5 µM

Record Cc1nc(NCCNC(=O)NC(C)(C)C)nc(N[C@@H]2C[C@H](CO)[C@H]3OC(C)(C)O[C@H]32)c1-c1nc2ccccc2s1 [Example 249] . Reported EC90: > 5 µM

Field EC90 (entry Cc1ccc(CNc2nc(C)c(-c3nc4ccccc4s3)c(N[C@@H]3C[C@H](CO)[C@H]4OC(C)(C)O[C@H]43)n2)s1 [Example 496] ) reads < 0.5 µM

# credit: patent US8697694B2
